I'd appreciate it if you could supply log Ks values for the items below.
assay_name: Binding affinity to beta cyclodextrin

Measured log Ks of COc1cc(NS(=O)(=O)c2ccc(N)cc2)nc(OC)n1 : 2.26

Measured log Ks of COCCO : 0.22

Measured log Ks of CCCCCc1ccc(OC(C)=O)cc1 : 3.8

Measured log Ks of Cc1cccc(/C=C/C(=O)O)c1 : 2.93

Measured log Ks of CCCC(=O)O[C@]1(C(=O)CO)CC[C@H]2[C@@H]3CCC4=CC(=O)CC[C@]4(C)[C@H]3[C@@H](O)C[C@@]21C [HYDROCORTISONE BUTYRATE] : 3.23

Measured log Ks of C[C@H](CCC(=O)O)[C@H]1CC[C@H]2[C@@H]3[C@H](O)C[C@@H]4C[C@H](O)CC[C@]4(C)[C@H]3C[C@H](O)[C@]12C : 3.5

Measured log Ks of CCc1ccccc1 : 2.59

Measured log Ks of COc1cc(O)cc(OC)c1 : 2.34

Measured log Ks of CCOC(=O)c1ccccc1 [ETHYL BENZOATE] : 2.73

Measured log Ks of CCOc1ccccc1 : 2.49

Measured log Ks of CC(C)C(C)O (stereo not given) : 1.92

Measured log Ks of CCOc1ccc(O)cc1 [1-hydroxy-4-ethoxybenzene] : 2.33

Measured log Ks of CC(=O)Oc1ccc(Cl)cc1 : 2.5

Measured log Ks of CC1(C)O[C@@H]2C[C@H]3[C@@H]4C[C@H](F)C5=CC(=O)C=C[C@]5(C)[C@@]4(F)[C@@H](O)C[C@]3(C)[C@]2(C(=O)CO)O1 [FLUOCINOLONE ACETONIDE] : 3.48

Measured log Ks of Cc1noc(NS(=O)(=O)c2ccc(N)cc2)c1C : 2.32

Measured log Ks of CC(C)c1ccc(O)cc1 : 3.58

Measured log Ks of CC(C)Oc1ccc(O)cc1 : 2.86

Measured log Ks of Nc1ccc(S(=O)(=O)Nc2ccccn2)cc1 : 2.7

Measured log Ks of CC=O : -0.64

Measured log Ks of CCC1(c2ccccc2)C(=O)NC(=O)NC1=O : 3.22

Measured log Ks of CCOC(=O)c1ccc(N)cc1 : 2.69

Measured log Ks of O=Cc1ccccc1 : 1.78

Measured log Ks of CC(=O)Oc1ccc(C)cc1 : 2.49

Measured log Ks of CCCCC[C@H](O)/C=C/[C@@H]1[C@H]2C/C(=C/CCCC(=O)O)O[C@H]2C[C@H]1O : 2.94

Measured log Ks of CCOc1ccc(OC(C)=O)cc1 : 2.54

* * *

assay_name: Binding affinity to beta cyclodextrin
measure: log Ks

Measured log Ks of CC(=O)Oc1ccc(F)cc1 : 2.11

Measured log Ks of CN(C)c1ccccc1 : 2.36

Measured log Ks of COc1ccc(O)cc1 : 2.21

Measured log Ks of CCCC(C)O (stereo not drawn) : 1.49

Measured log Ks of CC(C(=O)O)c1cccc(C(=O)c2ccccc2)c1 (stereo not drawn) : 2.85

Measured log Ks of CCCOC/C(=N\c1ccc(Cl)cc1C(F)(F)F)n1ccnc1 : 2.66

Measured log Ks of Oc1cc(Br)cc(Br)c1 : 2.56

Measured log Ks of CCC1(C2=CCCCC2)C(=O)NC(=O)NC1=O : 2.71

Measured log Ks of Oc1ccc(Cl)cc1 : 2.61

Measured log Ks of COC(=O)c1ccccc1 [METHYL BENZOATE] : 2.5

Measured log Ks of CC(C)(C)O : 1.68

Measured log Ks of Nc1ccc(S(=O)(=O)Nc2ncccn2)cc1 : 2.52

Measured log Ks of CC(=O)Oc1cccc(Br)c1 : 2.67

Measured log Ks of C[C@H]1C[C@H]2[C@@H]3CCC4=CC(=O)C=C[C@]4(C)[C@@]3(F)[C@@H](O)C[C@]2(C)[C@@]1(O)C(=O)CO : 3.73

Measured log Ks of CCCCCCC(C)O (stereo not drawn) : 3.13

Measured log Ks of CC1(C)O[C@@H]2C[C@H]3[C@@H]4CCC5=CC(=O)C=C[C@]5(C)[C@@]4(F)[C@@H](O)C[C@]3(C)[C@]2(C(=O)CO)O1 [TRIAMCINOLONE ACETONIDE] : 3.51

Measured log Ks of COc1cccc(O)c1 [1-hydroxy-3-methoxybenzene] : 2.11

Measured log Ks of c1ccc2c(c1)oc1ccccc12 : 2.97

Measured log Ks of C[C@]12CCC(=O)C=C1CC[C@@H]1[C@@H]2C(=O)C[C@@]2(C)[C@H]1CC[C@]2(O)C(=O)CO : 3.35

Measured log Ks of NS(=O)(=O)c1cc2c(cc1C(F)(F)F)NC(Cc1ccccc1)NS2(=O)=O (stereo not drawn) [BENDROFLUMETHIAZIDE] : 1.9

Measured log Ks of CC(=O)c1ccccc1 : 2.27

Measured log Ks of CC#N : -0.27

Measured log Ks of OC1CCC1 : 1.18

* * *

assay_name: Binding affinity to beta cyclodextrin
Hi, to clarify the labels: 1 covers log Ks from 2 upward, 0 covers anything below 2.

Problem: Quick check: does CNc1ccccc1 have log Ks greater than or equal to 2?
Solution: 1

Problem: Quick check: does Ic1ccccc1 have log Ks greater than or equal to 2?
Solution: 1

Problem: Quick check: does CCC(C)O (stereo not drawn) have log Ks greater than or equal to 2?
Solution: 0

Problem: Quick check: does OC[C@H](O)COCc1ccccc1 have log Ks greater than or equal to 2?
Solution: 1

Problem: Quick check: does ClC(Cl)Cl [CHLOROFORM] have log Ks greater than or equal to 2?
Solution: 0

Problem: Quick check: does O=C(O)CC1CC2CCC1C2 (stereo not drawn) have log Ks greater than or equal to 2?
Solution: 1

* * *

assay_name: Binding affinity to beta cyclodextrin
Please use rule met for log Ks under 3 and rule not met for everything else, ties included.

Problem: Is the reported log Ks for CCCCCO [1-PENTANOL] strictly below 3?
Solution: rule met

Problem: Is the reported log Ks for CC(=O)Oc1ccc(Br)cc1 strictly below 3?
Solution: rule met

Problem: Is the reported log Ks for COc1cc(NS(=O)(=O)c2ccc(N)cc2)nc(C)n1 [SULFAMETOMIDINE] strictly below 3?
Solution: rule met

Problem: Is the reported log Ks for CCCC(C)(C)O strictly below 3?
Solution: rule met

Problem: Is the reported log Ks for Nc1ccccc1 [ANILINE] strictly below 3?
Solution: rule met

Problem: Is the reported log Ks for CC(C)(C)c1cccc(O)c1 strictly below 3?
Solution: rule not met

Problem: Is the reported log Ks for CC(=O)OCC(=O)[C@@]1(O)CC[C@H]2[C@@H]3CCC4=CC(=O)C=C[C@]4(C)[C@H]3[C@@H](O)C[C@@]21C [PREDNISOLONE ACETATE] strictly below 3?
Solution: rule not met

Problem: Is the reported log Ks for CC(=O)OCC(=O)[C@@]1(O)CC[C@H]2[C@@H]3CCC4=CC(=O)CC[C@]4(C)[C@H]3C(=O)C[C@@]21C [CORTISONE ACETATE] strictly below 3?
Solution: rule not met

Problem: Is the reported log Ks for CCCCc1ccc(O)cc1 strictly below 3?
Solution: rule not met

Problem: Is the reported log Ks for CC(=O)OCC(=O)[C@@]1(O)CC[C@H]2[C@@H]3CCC4=CC(=O)CC[C@]4(C)[C@H]3[C@@H](O)C[C@@]21C [HYDROCORTISONE ACETATE] strictly below 3?
Solution: rule not met

Problem: Is the reported log Ks for c1ccc2nc3ccccc3cc2c1 [ACRIDINE] strictly below 3?
Solution: rule met

Problem: Is the reported log Ks for COc1ccccc1 [ANISOLE] strictly below 3?
Solution: rule met

Problem: Is the reported log Ks for CC(=O)Nc1ccccc1 [ACETANILIDE] strictly below 3?
Solution: rule met

Problem: Is the reported log Ks for Oc1cccc(Cl)c1 strictly below 3?
Solution: rule met

Problem: Is the reported log Ks for Cc1cccc(Nc2ccccc2C(=O)O)c1C [MEFENAMIC ACID] strictly below 3?
Solution: rule met

Problem: Is the reported log Ks for CC(=O)c1cccc(O)c1 strictly below 3?
Solution: rule met

Problem: Is the reported log Ks for OC1CCCCC1 [CYCLOHEXANOL] strictly below 3?
Solution: rule met

Problem: Is the reported log Ks for CCC(C)c1ccc(O)cc1 (stereo unspecified) strictly below 3?
Solution: rule not met

Problem: Is the reported log Ks for OCCc1ccccc1 [PHENYLETHYL ALCOHOL] strictly below 3?
Solution: rule met

Problem: Is the reported log Ks for C[C@]12C[C@H](O)[C@H]3[C@@H](CCC4=CC(=O)CC[C@@]43C)[C@@H]1CC[C@@H]2C(=O)CO [CORTICOSTERONE] strictly below 3?
Solution: rule not met

Problem: Is the reported log Ks for O=C(O)c1ccccc1Nc1cccc(C(F)(F)F)c1 [FLUFENAMIC ACID] strictly below 3?
Solution: rule not met

Problem: Is the reported log Ks for CCCCOC(=O)c1ccc(O)cc1 [BUTYLPARABEN] strictly below 3?
Solution: rule not met

Problem: Is the reported log Ks for CCCCCCCO [1-HEPTANOL] strictly below 3?
Solution: rule met

Problem: Is the reported log Ks for Cc1cccc(O)c1 [METACRESOL] strictly below 3?
Solution: rule met

Problem: Is the reported log Ks for CCCCn1ccnc1 strictly below 3?
Solution: rule met
